Each entry below lists one item and its recorded IC50 value.
biological target: SETD2(1434-1711) (Homo sapiens); construct: SETD2 (1434-1711) Assay; catalogue N/A; experiment: SETD2 (1434-1711) assay; assay type: biochemical; settings: read-out: SETD2 (1434-1711)
Sequence (Q9BYW2 1434-1711): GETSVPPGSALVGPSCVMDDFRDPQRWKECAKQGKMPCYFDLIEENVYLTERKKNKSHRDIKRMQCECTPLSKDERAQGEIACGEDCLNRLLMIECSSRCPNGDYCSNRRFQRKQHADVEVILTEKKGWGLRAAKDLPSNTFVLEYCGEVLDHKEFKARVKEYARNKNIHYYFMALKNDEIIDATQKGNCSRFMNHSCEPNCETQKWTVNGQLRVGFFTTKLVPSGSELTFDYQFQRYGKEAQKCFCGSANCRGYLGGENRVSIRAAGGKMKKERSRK

Worked examples, 5 compounds total:
compound	subject of test	IC50
Cc1cccc(O)c1C(NC(=O)c1cc2cccc(C)c2[nH]1)C1CC1 (stereo not shown) [compound 492]	SETD2(1434-1711) (Homo sapiens)	> 50 µM
Cc1ccc(F)c2cc(C(=O)Nc3cccc(N4CCC(N(C)C)(C(F)(F)F)CC4)c3)[nH]c12 [compound 375]	SETD2(1434-1711) (Homo sapiens)	> 10 µM
Cc1cccc2cc(C(=O)Nc3ncc4ccccc4n3)[nH]c12 [compound 804]	SETD2(1434-1711) (Homo sapiens)	> 200 µM
Cc1ccc(F)c2cc(C(=O)NC3CCCC(c4cncnc4)C3)[nH]c12 (stereo not shown) [compound 379]	SETD2(1434-1711) (Homo sapiens)	> 10 µM
Cc1cccnc1C(NC(=O)c1cc2cccc(C(F)(F)F)c2[nH]1)C1CC1 (stereo not shown) [compound 717]	SETD2(1434-1711) (Homo sapiens)	> 100 µM

Tell me reported IC50 for COc1ccc(C(O)CNC(=O)c2cc3cccc(C)c3[nH]2)cc1 (stereo not shown) [compound 754] , tested with SETD2(1434-1711) (Homo sapiens).
> 200 µM

Tell me reported IC50 for Cc1noc(CN)c1C(NC(=O)c1cc2cccc(C)c2[nH]1)C1CC1 (stereo not shown) [compound 602] , tested with SETD2(1434-1711) (Homo sapiens).
> 50 µM
